Give K SV, Stern–Volmer quenching constant for every item shown.
# studySystem: human serum albumin (HSA) (Homo sapiens)
# Construct: I (residues 1–195), II (196–383), and III (384–585); purchased Sigma
# Sequence (P02768 25-609): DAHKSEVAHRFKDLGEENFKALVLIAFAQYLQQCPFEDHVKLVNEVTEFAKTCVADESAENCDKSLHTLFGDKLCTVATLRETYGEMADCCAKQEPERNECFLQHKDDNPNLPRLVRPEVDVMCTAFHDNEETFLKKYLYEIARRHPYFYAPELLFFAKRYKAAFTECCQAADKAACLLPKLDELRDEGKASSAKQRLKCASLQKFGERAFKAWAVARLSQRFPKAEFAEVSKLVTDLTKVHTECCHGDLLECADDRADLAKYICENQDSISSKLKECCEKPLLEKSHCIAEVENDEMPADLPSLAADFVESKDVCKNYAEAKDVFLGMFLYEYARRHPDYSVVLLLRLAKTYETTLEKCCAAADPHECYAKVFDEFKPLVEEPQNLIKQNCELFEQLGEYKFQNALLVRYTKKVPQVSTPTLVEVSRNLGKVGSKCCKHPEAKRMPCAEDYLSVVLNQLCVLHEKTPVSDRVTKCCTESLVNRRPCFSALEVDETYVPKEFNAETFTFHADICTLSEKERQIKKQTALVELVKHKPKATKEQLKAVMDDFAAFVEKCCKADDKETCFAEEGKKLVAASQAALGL
# assayOverview: Fluorescence quenching titration of HSA (Stern–Volmer analysis)
# Type: binding
# setupConditions: HSA 5 µM, 20 mM phosphate buffer pH 7.4, 25°C, excitation 295 nm

Study these solved cases before continuing.
1) O=[N+]([O-])[O-].[Ag+] [AgNO3, reference compound] :: 3.10 10^5 M^−1
2) CC#N.F[P-](F)(F)(F)(F)F.[Ag+].c1ccc2c(c1)[nH]c1cnccc12.c1ccc2c(c1)[nH]c1cnccc12 [Compound 3, [Ag(Hnor)2(MeCN)](PF6)] :: 4.53 10^5 M^−1

Proceed to the following item.
In: Please report the recorded K SV, Stern–Volmer quenching constant for [Ag+].[O-][Cl+3]([O-])([O-])[O-].c1ccc2c(c1)[nH]c1cnccc12.c1ccc2c(c1)[nH]c1cnccc12 [Compound 1, [Ag(Hnor)2](ClO4)] .
Out: 5.37 10^5 M^−1
